FYI, the data here is from PubChem BioAssay (NCI).

Listing of recorded TGI by entry.
test system: HS 578T breast; experiment: NCI tumour cell line growth inhibition, 48 h
Readout kind: TGI (µM)

INSERT INTO results (compound, readout_kind, censoring_operator, value_reported) VALUES
  ('CCOC(=O)CCC(NC(=O)c1ccc(Oc2nc3ccccc3nc2-c2ccccc2)cc1)C(=O)OCC (stereo not given)', 'TGI', '=', 27.3),
  ('C=CCN1C(=O)/C(=C\c2cc(C(C)(C)C)c(O)c(C(C)(C)C)c2)NC1=S', 'TGI', '>', 100),
  ('COc1cccc(/C=C2\CCCc3ccccc3C2=O)c1', 'TGI', '=', 41.4),
  ('CC(C)C[C@H](NC(=O)Cn1ccc(NCc2ccccc2)cc1=O)B(O)O', 'TGI', '=', 85.3),
  ('CCN(CC)c1ccc2cc(C(N)=S)c(=N)oc2c1', 'TGI', '>', 100),
  ('CS(=O)(=O)CCNCc1ccc(-c2ccc3ncnc(Nc4ccc(OCc5ccccc5)c(Br)c4)c3c2)o1', 'TGI', '=', 15.9),
  ('CSC1=Nc2ccccc2-c2nc3ccccc3cc2C1', 'TGI', '>', 100),
  ('CCCN(CCC)c1ccc(/C=C/c2ccc3cc(OCC)ccc3n2)cc1', 'TGI', '>', 100),
  ('O=C(N/N=C/c1c(-c2ccccc2)no[n+]1[O-])N1CCOCC1', 'TGI', '>', 100),
  ('Cn1c(=O)n2n(c1=O)C(S(=O)(=O)c1ccccc1)C2 (stereo not given)', 'TGI', '>', 100);
